# Emax per record follows
- MEASUREMENT TARGET: KCNQ 2/3 channels (HEK293 cells stably expressing human KCNQ2 and KCNQ3 subunits) (Homo sapiens, UniProt O43525+O43526)
- Construct: expressed in transfected cells; host or cells: HEK293
- ASSAY OVERVIEW: KCNQ2/3 channel activation, thallium flux FLIPR assay with BTC-AM dye
- Assay type: cell-based
- SETTINGS: HEK293; maximum response relative to the response produced by 10 μM retigabine (set at 100%); read-out: Max. %
Please give a number only; it is taken to be in %.

Some compounds with known Emax results, for comparison:
- CC(C)(CC(=O)Nn1nc(-c2ccccc2)c2ccccc2c1=O)c1ccccc1 [Example 82]: 156
- CC(C)(CC(=O)Nn1nc(-c2ccc(C(F)(F)F)cc2)c2ccccc2c1=O)c1ccccc1 [Example 148]: 114
- O=C(CC1CC2CCC1C2)Nn1nc(Cc2ccc(Cl)cc2)c2ccccc2c1=O (racemic) [Example 144]: 139
- CC(C)c1ccc(-c2nn(NC(=O)CC34CC5CC(CC(C5)C3)C4)c(=O)c3ccccc23)cc1 [Example 169]: 139

The recorded Emax for O=C(C[C@@H]1C[C@@H]2CC[C@H]1C2)Nn1nc(-c2ccc(F)cc2)c2ccccc2c1=O [Example 129] is 143

Lab note: Cc1ccc(-c2nn(NC(=O)Cc3cc(F)cc(F)c3)c(=O)c3ccccc23)cc1C [Example 166] gave Emax of 161

Short answer for CC(C)c1ccc(-c2nn(NC(=O)C[C@H]3C[C@@H]4CC[C@H]3C4)c(=O)c3ccccc23)cc1 (racemic) [Example 168] : Emax was 134

Item: O=C(Cc1cccc(OC(F)(F)F)c1)Nn1nc(-c2ccc(Cl)cc2)c2ccccc2c1=O [Example 98] | Emax: 80

Note to self: Emax recorded for O=C(Cc1cc(F)cc(F)c1)Nn1nc(C2CC2)c2ccccc2c1=O [Example 23] was 156

// provenance: patent US8629143B2
